Form field: Ratio of PDL1:CD28 (one value per entry).
Target: T1, human PD-L1 (human, UniProt Q9NZQ7 19-290)
T1 construct: also called huPD-L1; CD274
T1 sequence (Q9NZQ7 19-290): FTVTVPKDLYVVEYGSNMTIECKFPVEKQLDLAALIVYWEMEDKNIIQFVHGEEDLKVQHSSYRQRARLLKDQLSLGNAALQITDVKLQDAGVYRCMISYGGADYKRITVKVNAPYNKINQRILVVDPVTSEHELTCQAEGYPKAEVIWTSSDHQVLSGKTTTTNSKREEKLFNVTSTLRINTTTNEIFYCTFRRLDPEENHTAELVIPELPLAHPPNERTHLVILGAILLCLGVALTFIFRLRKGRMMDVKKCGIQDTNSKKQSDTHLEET
Assay: flow cytometry; PD-L1 MFI over CD28 MFI
recorded-endpoint: Ratio of PDL1:CD28 (ratio)

{"binder": "CD80 E35D/D46V/M47L/V68M/L85Q/E88D IgV-Fc, (EAAAK)3 linker (Fc fusion, not shown: a dimerising Fc or GST) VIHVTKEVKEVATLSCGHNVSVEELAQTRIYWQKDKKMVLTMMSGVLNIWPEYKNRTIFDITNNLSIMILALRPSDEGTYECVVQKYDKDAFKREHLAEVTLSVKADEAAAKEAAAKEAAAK", "recorded-endpoint": "Ratio of PDL1:CD28", "uom": "ratio", "number": 129}
{"binder": "CD80 E35D/D46V/M47L/V68M/L85Q/E88D IgV-Fc, delta linker (Fc fusion, Fused directly to the Fc with no additional linker; also called E35D/D46V/M47L/V68M/L85Q/E88D delta) VIHVTKEVKEVATLSCGHNVSVEELAQTRIYWQKDKKMVLTMMSGVLNIWPEYKNRTIFDITNNLSIMILALRPSDEGTYECVVQKYDKDAFKREHLAEVTLSVKTHTCPPCPAPEAEGAPSVFLFPPKPKDTLMISRTPEVTCVVVDVSHEDPEVKFNWYVDGVEVHNAKTKPREEQYNSTYRVVSVLTVLHQDWLNGKEYKCKVSNKALPAPIEKTISKAKGQPREPQVYTLPPSREEMTKNQVSLTCLVKGFYPSDIAVEWESNGQPENNYKTTPPVLDSDGSFFLYSKLTVDKSRWQQGNVFSCSVMHEALHNHYTQKSLSLSPG", "recorded-endpoint": "Ratio of PDL1:CD28", "uom": "ratio", "number": 5}
{"binder": "wild-type CD80 IgV-Fc (inert) with GSG4S linker, Example 16 (Fc fusion, also called CD80 WT IgV-Fc) VIHVTKEVKEVATLSCGHNVSVEELAQTRIYWQKEKKMVLTMMSGDMNIWPEYKNRTIFDITNNLSIVILALRPSDEGTYECVVLKYEKDAFKREHLAEVTLSVKADGSGGGGSEPKSSDKTHTCPPCPAPEAEGAPSVFLFPPKPKDTLMISRTPEVTCVVVDVSHEDPEVKFNWYVDGVEVHNAKTKPREEQYNSTYRVVSVLTVLHQDWLNGKEYKCKVSNKALPAPIEKTISKAKGQPREPQVYTLPPSREEMTKNQVSLTCLVKGFYPSDIAVEWESNGQPENNYKTTPPVLDSDGSFFLYSKLTVDKSRWQQGNVFSCSVMHEALHNHYTQKSLSLSPG", "recorded-endpoint": "Ratio of PDL1:CD28", "uom": "ratio", "number": 1}
